- Test system: Staphylococcus aureus (MRSA3)
Positions of bridges follow the written chain, without caps; N, C: chain ends. Non-standard residues stand in square brackets, D forms with d. Residues, ends and D or L forms follow the SMILES beside them. *: point of attachment. Hexanoyl(3-OH,5-Me) = CC(C)CC(O)CC(=O)*; dNMeF = CN[C@H](Cc1ccccc1)C(=O)O

>  <molecule>
CC(C)CC(O)CC(=O)N[C@@H]1C(=O)N[C@H](CCCNC(=N)N)C(=O)N[C@@H](CO)C(=O)NCC(=O)N(C)[C@H](Cc2ccccc2)C(=O)N[C@@H](CC(C)C)C(=O)N[C@H](CCCNC(=N)N)C(=O)N[C@@H](CCC(=O)O)C(=O)N[C@H](CCC(N)=O)C(=O)N[C@H](Cc2c[nH]c3ccccc23)C(=O)N[C@@H](C(C)C)C(=O)N[C@@H]([C@@H](C)O)C(=O)O[C@@H]1C (stereo partly drawn) [Peak P2] ({Hexanoyl(3-OH,5-Me)}-T[dR]SG[dNMeF]L[dR]E[dQ][dW]VT; ester 1-C)

>  <MIC [µg/mL]>
12.5

$$$$

* * *

Positions of bridges follow the written chain, without caps; N, C: chain ends. Non-standard residues stand in square brackets, D forms with d. Residues, ends and D or L forms follow the SMILES beside them. *: point of attachment. Hexanoyl(3-OH,5-Me) = CC(C)CC(O)CC(=O)*; dNMeF = CN[C@H](Cc1ccccc1)C(=O)O
Record: MIC reported on Staphylococcus aureus (MRSA4).

>  <molecule>
CC(C)CC(O)CC(=O)N[C@@H]1C(=O)N[C@H](CCCNC(=N)N)C(=O)N[C@@H](CO)C(=O)NCC(=O)N(C)[C@H](Cc2ccccc2)C(=O)N[C@@H](CC(C)C)C(=O)N[C@H](CCCNC(=N)N)C(=O)N[C@@H](CCC(=O)O)C(=O)N[C@H](CCC(N)=O)C(=O)N[C@H](Cc2c[nH]c3ccccc23)C(=O)N[C@@H](C(C)C)C(=O)N[C@@H]([C@@H](C)O)C(=O)O[C@@H]1C (stereo partly drawn) [Peak P2] ({Hexanoyl(3-OH,5-Me)}-T[dR]SG[dNMeF]L[dR]E[dQ][dW]VT; ester 1-C)

>  <MIC>
6.3 µg/mL

$$$$
>  <molecule>
CC[C@H](C)[C@@H]1NC(=O)[C@@H](Cc2c[nH]c3ccccc23)NC(=O)[C@@H](CCC(N)=O)NC(=O)[C@H](CCC(=O)O)NC(=O)[C@@H](CCCNC(=N)N)NC(=O)[C@H](CC(C)C)NC(=O)[C@@H](Cc2ccccc2)N(C)C(=O)CNC(=O)[C@H](CO)NC(=O)[C@@H](CCCNC(=N)N)NC(=O)[C@@H](NC(=O)CC(O)CCCC(C)C)[C@@H](C)OC(=O)[C@H]([C@@H](C)O)NC1=O (single isomer, unassigned) [Peak P8]

>  <MIC>
12.5 µg/mL

$$$$

* * *

Here the recorded MIC is given for each entry.
- System: Staphylococcus aureus (MRSA3)
reported.endpoint: MIC (µg/mL)

>  <molecule>
CC[C@H](C)[C@@H]1NC(=O)[C@@H](Cc2c[nH]c3ccccc23)NC(=O)[C@@H](CCC(N)=O)NC(=O)[C@H](CCC(=O)O)NC(=O)[C@@H](CCCNC(=N)N)NC(=O)[C@H](CC(C)C)NC(=O)[C@@H](Cc2ccccc2)N(C)C(=O)CNC(=O)[C@H](CO)NC(=O)[C@@H](CCCNC(=N)N)NC(=O)[C@@H](NC(=O)CC(O)CCC(C)C)[C@@H](C)OC(=O)[C@H]([C@@H](C)O)NC1=O (single isomer, unassigned) [Peak P7]

>  <assay.result>
12.5

$$$$
>  <molecule>
CC[C@H](C)[C@@H]1NC(=O)[C@@H](Cc2c[nH]c3ccccc23)NC(=O)[C@@H](CCC(N)=O)NC(=O)[C@H](CCC(=O)O)NC(=O)[C@@H](CCCNC(=N)N)NC(=O)[C@H](CC(C)C)NC(=O)[C@@H](Cc2ccccc2)NC(=O)CNC(=O)[C@H](CO)NC(=O)[C@@H](CCCNC(=N)N)NC(=O)[C@@H](NC(=O)CC(O)CCCC(C)C)[C@@H](C)OC(=O)[C@H]([C@@H](C)O)NC1=O (single isomer, unassigned) [Peak P3]

>  <assay.result>
25

$$$$
>  <molecule>
CC[C@H](C)[C@@H]1NC(=O)[C@@H](Cc2c[nH]c3ccccc23)NC(=O)[C@@H](CCC(N)=O)NC(=O)[C@H](CCC(=O)O)NC(=O)[C@@H](CCCNC(=N)N)NC(=O)[C@H](CC(C)C)NC(=O)[C@@H](Cc2ccccc2)NC(=O)CNC(=O)[C@H](CO)NC(=O)[C@@H](CCCNC(=N)N)NC(=O)[C@@H](NC(=O)CC(O)CCCC(C)C)[C@@H](C)OC(=O)[C@H]([C@@H](C)O)NC1=O (single isomer, unassigned) [Peak P4]

>  <assay.result>
25.0

$$$$
>  <molecule>
CC[C@H](C)[C@@H]1NC(=O)[C@@H](Cc2c[nH]c3ccccc23)NC(=O)[C@@H](CCC(N)=O)NC(=O)[C@H](CCC(=O)O)NC(=O)[C@@H](CCCNC(=N)N)NC(=O)[C@H](CC(C)C)NC(=O)[C@@H](Cc2ccccc2)N(C)C(=O)CNC(=O)[C@H](CO)NC(=O)[C@@H](CCCNC(=N)N)NC(=O)[C@@H](NC(=O)CC(O)CCCC(C)C)[C@@H](C)OC(=O)[C@H]([C@@H](C)O)NC1=O (single isomer, unassigned) [Peak P8]

>  <assay.result>
12.5

$$$$
